System: MOLM-13
protocol_description: In vitro combination studies, CellTitre-Glo cell viability
condition_context: MOLM-13; in combination with Compound 1
property_name: Synergy analysis for combinations with Compound 1

| molecule | meas_value |
| --- | --- |
| CC1(COc2ccc3c(c2)ncn3-c2ccc3cccc(N4CCC(N)CC4)c3n2)COC1 | Yes |
| CN(C)C(=N)N=C(N)N | No |
| COc1ccc(-c2c(-c3ccc(C#N)c(F)c3)nc(N3CCC(N)CC3)n(C)c2=O)cc1F [Compound B, reference compound] | Yes |
| Cn1cc(-c2cc(S(C)(=O)=O)ccc2OCC2CC2)c2ccccc2c1=O [Compound A, reference compound] | Yes |
| O=C(/C=C/c1ccccc1)NC(NC(=S)Nc1cccc2cccnc12)C(Cl)(Cl)Cl (stereo not drawn) | No |
| CO[C@H]1C[C@@H]2CC[C@@H](C)[C@@](O)(O2)C(=O)C(=O)N2CCCC[C@H]2C(=O)O[C@H]([C@H](C)C[C@@H]2CC[C@@H](OCCO)[C@H](OC)C2)CC(=O)[C@H](C)/C=C(\C)[C@@H](O)[C@@H](OC)C(=O)[C@H](C)C[C@H](C)/C=C/C=C/C=C/1C [everolimus, reference compound] | Yes |

We now examine a further molecule.
Input: Could you tell me which Synergy analysis for combinations with Compound 1 is on file for CC(C)C[C@H](NC(=O)[C@H](CCc1ccccc1)NC(=O)CN1CCOCC1)C(=O)N[C@@H](Cc1ccccc1)C(=O)N[C@@H](CC(C)C)C(=O)[C@@]1(C)CO1 ?
Output: No
